Assay: Study HMI116787: single ascending dose, food effect and RTV boosting, SDD PiB, healthy subjects
Assay type: in vivo, human
Conditions: human, plasma, oral; single 50 mg SDD PiB, fasted, without ritonavir, Study HMI116787; geometric mean (95% CI)
outcome-measure: Cmax (ng/mL)
# number only, unit ng/mL dropped from output

What does the record list as Cmax for CC(C)C1=C2[C@H]3CC[C@@H]4[C@@]5(C)CC[C@H](OC(=O)CC(C)(C)C(=O)O)C(C)(C)[C@@H]5CC[C@@]4(C)[C@]3(C)CC[C@@]2([C@@H](O)CN(CCN(C)C)Cc2ccc(Cl)cc2)CC1=O ?
13.1

meta.source: paper PMC5989765
